All figures here come from patent US4782064A.

# test_target: thromboxane synthetase (Rattus norvegicus)
# Construct: The platelets were isolated by centrifuging the PRP for 10 minutes; endogenous in cells; host or cells: washed platelets from arterial blood of Okamoto-Aoki spontaneously hypertensive rats (Taconic Farms, Germantown, N.Y.)
# Sequence (P49430 whole entry): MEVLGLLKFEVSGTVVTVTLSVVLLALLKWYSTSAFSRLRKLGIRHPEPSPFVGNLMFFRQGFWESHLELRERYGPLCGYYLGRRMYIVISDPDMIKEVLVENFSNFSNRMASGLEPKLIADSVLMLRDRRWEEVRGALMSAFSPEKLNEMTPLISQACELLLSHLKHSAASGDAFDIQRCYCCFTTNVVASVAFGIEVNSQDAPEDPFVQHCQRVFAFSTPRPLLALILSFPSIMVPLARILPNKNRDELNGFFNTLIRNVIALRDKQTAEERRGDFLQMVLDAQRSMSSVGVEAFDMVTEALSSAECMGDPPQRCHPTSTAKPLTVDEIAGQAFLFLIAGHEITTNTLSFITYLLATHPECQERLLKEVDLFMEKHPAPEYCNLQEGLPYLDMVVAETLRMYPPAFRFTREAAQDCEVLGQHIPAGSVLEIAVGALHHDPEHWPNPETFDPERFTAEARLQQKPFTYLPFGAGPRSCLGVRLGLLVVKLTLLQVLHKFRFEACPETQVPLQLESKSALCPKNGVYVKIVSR
# protocol_text: inhibition of thromboxane (TX) formation in platelets (TXB2 by radioimmunoassay)
# Format: cell-based, Okamoto-Aoki spontaneously hypertensive rats (SHR)
# test_context: drug at 10^-4 M, 10 minutes at 37° C., washed SHR platelets, TXB2 RIA
Structures can show the parent of a compound that is named as a salt.
readout_label: inhibition at 100 µM (%)
Answers are plain numbers, in %.

Some solved entries appear below for comparison.
| molecule | test_target | experimental_result |
| --- | --- | --- |
| O=C1c2cccc3cccc(c23)C(=O)N1CCCn1ccnc1 | thromboxane synthetase (Rattus norvegicus) | 89 |
| O=C1c2cccc3cc([N+](=O)[O-])cc(c23)C(=O)N1CCCn1cncn1 | thromboxane synthetase (Rattus norvegicus) | 94 |
| O=C1c2cccc3cccc(c23)C(=O)N1CCCCCn1ccnc1 | thromboxane synthetase (Rattus norvegicus) | 100 |
| O=C1c2cccc3c(Cl)ccc(c23)C(=O)N1CCCn1ccnc1 [monohydrochloride] | thromboxane synthetase (Rattus norvegicus) | 95 |
| O=C1c2cccc3cccc(c23)C(=O)N1C(CCn1ccnc1)c1ccccc1 (stereo not shown) | thromboxane synthetase (Rattus norvegicus) | 97 |
| O=C1c2cccc3cc([N+](=O)[O-])cc(c23)C(=O)N1CCCCc1cccnc1 | thromboxane synthetase (Rattus norvegicus) | 94 |
| Nc1ccc2c3c(cccc13)C(=O)N(CCCCn1ccnc1)C2=O [dihydrochloride] | thromboxane synthetase (Rattus norvegicus) | 96 |
| O=C1c2cccc3c(Cl)ccc(c23)C(=O)N1CCCCn1ccnc1 [monohydrochloride] | thromboxane synthetase (Rattus norvegicus) | 96 |
| O=C1c2cccc3cc([N+](=O)[O-])cc(c23)C(=O)N1CCCn1ccnc1 | thromboxane synthetase (Rattus norvegicus) | 100 |
| CC(CCN1C(=O)c2cccc3cccc(c23)C1=O)n1ccnc1 (stereo not shown) | thromboxane synthetase (Rattus norvegicus) | 97 |

Report inhibition at 100 µM for every entry below.
1. CC(CN1C(=O)c2cccc3cc([N+](=O)[O-])cc(c23)C1=O)Cn1ccnc1 (stereo not shown)
2. CC(CCN1C(=O)c2cccc3cc([N+](=O)[O-])cc(c23)C1=O)n1ccnc1 (stereo not shown)

Result:
1. 100
2. 100

Task: What value of measured inhibition at 100 µM is listed for `O=C1c2cccc3c(Cl)ccc(c23)C(=O)N1CCCCCn1ccnc1` ?
Result: 94
